Cited source for all entries: patent US10800791B2

Measured IC50, listed per entry.
molecular target: human (hACC2) (Homo sapiens, UniProt O00763); experiment: In vitro ACC inhibition assay (ADP-Glo), hACC2; assay type: biochemical; details: Table 2b, additional results, 5 nM ACC2, 20 μM ATP, 20 μM acetyl-CoA
Sequence (O00763 whole entry): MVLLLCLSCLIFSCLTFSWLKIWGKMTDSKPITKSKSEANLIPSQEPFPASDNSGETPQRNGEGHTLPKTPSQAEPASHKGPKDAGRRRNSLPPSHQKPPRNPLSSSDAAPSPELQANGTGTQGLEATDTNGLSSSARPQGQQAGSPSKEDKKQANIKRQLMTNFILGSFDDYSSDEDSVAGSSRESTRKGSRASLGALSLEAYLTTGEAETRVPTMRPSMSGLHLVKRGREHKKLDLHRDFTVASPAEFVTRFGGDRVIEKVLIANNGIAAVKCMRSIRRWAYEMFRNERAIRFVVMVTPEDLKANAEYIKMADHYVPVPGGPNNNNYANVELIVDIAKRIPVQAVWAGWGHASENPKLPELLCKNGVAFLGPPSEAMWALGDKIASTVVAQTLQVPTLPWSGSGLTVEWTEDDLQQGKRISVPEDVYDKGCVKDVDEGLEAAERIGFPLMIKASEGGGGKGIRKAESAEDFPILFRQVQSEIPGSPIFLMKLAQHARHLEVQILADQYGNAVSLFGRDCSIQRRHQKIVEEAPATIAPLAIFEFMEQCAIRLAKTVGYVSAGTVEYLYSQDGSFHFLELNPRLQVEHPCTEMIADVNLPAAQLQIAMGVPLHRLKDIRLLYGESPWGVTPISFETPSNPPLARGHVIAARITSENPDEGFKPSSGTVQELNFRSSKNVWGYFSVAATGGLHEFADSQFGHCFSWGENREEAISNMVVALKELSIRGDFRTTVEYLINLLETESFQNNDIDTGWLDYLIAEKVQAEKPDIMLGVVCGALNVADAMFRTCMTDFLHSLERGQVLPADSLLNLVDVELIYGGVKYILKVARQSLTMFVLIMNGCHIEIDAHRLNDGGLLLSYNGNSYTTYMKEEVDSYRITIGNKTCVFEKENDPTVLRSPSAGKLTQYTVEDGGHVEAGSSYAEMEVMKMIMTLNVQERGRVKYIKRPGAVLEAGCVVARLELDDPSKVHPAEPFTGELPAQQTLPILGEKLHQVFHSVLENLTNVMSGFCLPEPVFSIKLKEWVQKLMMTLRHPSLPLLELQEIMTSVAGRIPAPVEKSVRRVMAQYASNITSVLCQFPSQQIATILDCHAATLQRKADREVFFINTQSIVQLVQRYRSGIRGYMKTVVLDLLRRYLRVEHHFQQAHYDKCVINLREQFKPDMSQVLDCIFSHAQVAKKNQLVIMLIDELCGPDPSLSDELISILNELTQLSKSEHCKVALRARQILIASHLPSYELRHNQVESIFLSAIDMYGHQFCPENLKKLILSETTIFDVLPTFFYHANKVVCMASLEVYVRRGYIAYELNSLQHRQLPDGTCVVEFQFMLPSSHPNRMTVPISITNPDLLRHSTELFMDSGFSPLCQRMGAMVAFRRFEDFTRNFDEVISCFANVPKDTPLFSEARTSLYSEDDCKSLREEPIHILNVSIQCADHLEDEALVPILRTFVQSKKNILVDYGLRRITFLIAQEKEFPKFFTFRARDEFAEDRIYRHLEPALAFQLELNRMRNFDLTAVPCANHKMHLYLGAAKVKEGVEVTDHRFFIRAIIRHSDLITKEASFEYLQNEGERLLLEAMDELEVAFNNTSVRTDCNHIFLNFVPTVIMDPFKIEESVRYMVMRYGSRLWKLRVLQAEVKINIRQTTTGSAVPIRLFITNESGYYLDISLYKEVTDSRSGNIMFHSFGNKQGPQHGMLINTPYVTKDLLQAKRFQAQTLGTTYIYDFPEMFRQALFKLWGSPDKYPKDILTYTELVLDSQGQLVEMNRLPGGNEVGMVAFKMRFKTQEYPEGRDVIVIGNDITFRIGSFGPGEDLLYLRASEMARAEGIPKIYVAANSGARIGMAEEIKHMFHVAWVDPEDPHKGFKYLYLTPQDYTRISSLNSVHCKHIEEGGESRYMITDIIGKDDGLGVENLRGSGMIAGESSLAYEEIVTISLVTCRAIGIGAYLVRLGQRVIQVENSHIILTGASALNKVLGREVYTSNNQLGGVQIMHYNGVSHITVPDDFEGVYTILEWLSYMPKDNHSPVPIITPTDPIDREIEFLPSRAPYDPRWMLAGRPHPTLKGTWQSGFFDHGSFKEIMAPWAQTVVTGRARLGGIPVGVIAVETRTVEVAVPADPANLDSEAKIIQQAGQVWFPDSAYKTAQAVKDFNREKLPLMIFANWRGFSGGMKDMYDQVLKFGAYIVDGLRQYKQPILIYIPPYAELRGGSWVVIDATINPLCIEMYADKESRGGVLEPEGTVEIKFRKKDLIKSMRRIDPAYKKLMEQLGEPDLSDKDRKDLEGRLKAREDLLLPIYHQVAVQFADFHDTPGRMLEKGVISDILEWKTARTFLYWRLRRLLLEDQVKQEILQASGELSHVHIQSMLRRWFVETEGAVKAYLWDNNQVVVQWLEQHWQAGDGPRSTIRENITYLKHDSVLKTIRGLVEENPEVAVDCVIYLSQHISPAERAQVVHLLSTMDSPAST

* COc1ccc(F)cc1[C@H](Cn1c(=O)n(C(C)(C)C(=O)N2CCCC2)c(=O)c2c(C)c(-n3nccn3)sc21)OCCO | 5 to 10 nM
* COc1ccc(F)cc1[C@H](Cn1c(=O)n(C(C)(C)C(N)=O)c(=O)c2c(C)c(-n3nccn3)sc21)OC1CCC(=O)CC1 | 5 to 10 nM
* COc1ccc(F)cc1[C@H](Cn1c(=O)n([C@@H](C)C(=O)NC(C)C)c(=O)c2c(C)c(-n3nccn3)sc21)OCC(C)(C)C#N | 10 to 40 nM

Kindly indicate its recorded IC50. Item: C=CCNC(=O)C(C)(C)n1c(=O)c2c(C)c(-n3nccn3)sc2n(C[C@H](OC(C)C)c2cc(F)ccc2OC)c1=O
5 to 10 nM

Kindly indicate its recorded IC50. Item: CNC(=O)C(C)(C)n1c(=O)c2c(C)c(-n3nccn3)sc2n(C[C@H](OCCC#N)c2ccccc2OC)c1=O
5 to 10 nM

Kindly indicate its recorded IC50. Item: COCCO[C@@H](Cn1c(=O)n(C(C)(C)C(=O)OC2CCC2)c(=O)c2c(C)c(-n3nccn3)sc21)c1cc(F)ccc1OC
10 to 40 nM

====

target: UniProt:Q00955; conditions: read-out: fACC2 (in vitro ACC2 Inhibition Assay, IC50); Table 2b, additional results; ADP-Glo, 5 nM ACC2, 20 μM ATP, 20 μM acetyl-CoA
Sequence (Q00955 whole entry): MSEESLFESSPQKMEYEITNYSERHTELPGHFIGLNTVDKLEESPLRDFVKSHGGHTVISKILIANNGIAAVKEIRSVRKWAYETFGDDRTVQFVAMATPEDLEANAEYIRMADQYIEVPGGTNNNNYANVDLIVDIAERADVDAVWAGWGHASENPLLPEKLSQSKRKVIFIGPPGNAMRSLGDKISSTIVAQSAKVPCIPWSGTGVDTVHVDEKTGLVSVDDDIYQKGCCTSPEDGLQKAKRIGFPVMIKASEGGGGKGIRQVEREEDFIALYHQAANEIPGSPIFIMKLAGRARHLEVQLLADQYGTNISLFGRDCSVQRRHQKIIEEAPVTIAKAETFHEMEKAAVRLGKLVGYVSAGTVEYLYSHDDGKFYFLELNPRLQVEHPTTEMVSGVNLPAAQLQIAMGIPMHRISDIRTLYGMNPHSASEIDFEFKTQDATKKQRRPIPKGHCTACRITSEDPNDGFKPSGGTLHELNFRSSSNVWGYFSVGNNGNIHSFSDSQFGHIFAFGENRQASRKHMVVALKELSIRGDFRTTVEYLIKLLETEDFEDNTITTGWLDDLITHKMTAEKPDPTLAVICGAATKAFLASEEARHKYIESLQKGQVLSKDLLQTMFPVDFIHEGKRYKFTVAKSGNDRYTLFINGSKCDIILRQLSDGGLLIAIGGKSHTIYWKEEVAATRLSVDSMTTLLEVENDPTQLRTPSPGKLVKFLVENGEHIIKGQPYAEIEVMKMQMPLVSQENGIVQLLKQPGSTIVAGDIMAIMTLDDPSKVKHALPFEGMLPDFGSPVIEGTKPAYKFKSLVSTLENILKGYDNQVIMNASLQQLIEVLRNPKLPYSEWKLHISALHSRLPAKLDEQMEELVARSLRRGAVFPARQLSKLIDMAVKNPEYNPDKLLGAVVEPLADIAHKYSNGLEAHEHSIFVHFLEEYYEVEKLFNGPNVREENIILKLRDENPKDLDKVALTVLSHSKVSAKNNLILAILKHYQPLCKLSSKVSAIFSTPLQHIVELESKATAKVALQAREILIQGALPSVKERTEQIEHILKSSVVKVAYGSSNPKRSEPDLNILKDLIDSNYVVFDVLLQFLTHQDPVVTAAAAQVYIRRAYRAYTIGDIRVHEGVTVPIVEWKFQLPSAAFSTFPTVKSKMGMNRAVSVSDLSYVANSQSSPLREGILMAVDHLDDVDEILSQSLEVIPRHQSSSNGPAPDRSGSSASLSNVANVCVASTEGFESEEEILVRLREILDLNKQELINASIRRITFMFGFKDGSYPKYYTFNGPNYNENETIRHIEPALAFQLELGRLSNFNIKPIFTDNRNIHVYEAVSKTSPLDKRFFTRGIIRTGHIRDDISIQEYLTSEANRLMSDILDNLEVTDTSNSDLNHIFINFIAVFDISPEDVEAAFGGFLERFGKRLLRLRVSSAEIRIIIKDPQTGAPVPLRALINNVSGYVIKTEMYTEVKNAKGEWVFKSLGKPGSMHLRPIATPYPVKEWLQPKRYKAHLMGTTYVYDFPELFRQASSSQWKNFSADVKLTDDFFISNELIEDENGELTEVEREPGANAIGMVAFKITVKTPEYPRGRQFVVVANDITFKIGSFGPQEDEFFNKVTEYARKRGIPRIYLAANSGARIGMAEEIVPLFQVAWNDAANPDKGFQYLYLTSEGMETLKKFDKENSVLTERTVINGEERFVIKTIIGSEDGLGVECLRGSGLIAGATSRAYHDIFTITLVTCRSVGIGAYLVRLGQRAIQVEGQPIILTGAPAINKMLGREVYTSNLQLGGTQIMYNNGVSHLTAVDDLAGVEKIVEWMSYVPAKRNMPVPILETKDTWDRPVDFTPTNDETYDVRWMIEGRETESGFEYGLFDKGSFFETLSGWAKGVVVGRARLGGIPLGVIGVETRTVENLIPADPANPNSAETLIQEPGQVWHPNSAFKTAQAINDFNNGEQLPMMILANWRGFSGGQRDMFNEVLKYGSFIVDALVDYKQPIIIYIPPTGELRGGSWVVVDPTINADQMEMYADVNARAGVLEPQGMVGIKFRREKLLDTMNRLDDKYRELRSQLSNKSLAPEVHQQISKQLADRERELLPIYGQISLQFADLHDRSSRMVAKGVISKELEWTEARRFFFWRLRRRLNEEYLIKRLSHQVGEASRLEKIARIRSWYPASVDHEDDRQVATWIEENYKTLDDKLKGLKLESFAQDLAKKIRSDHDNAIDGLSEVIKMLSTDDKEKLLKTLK
Measured IC50, listed per entry.

• COc1ccc(Cl)cc1[C@H](Cn1c(=O)n(C(C)(C)C(=O)NC(C)C)c(=O)c2c(C)c(-n3nccn3)sc21)OCC(C)(C)C#N = 1 to 5 nM
• COc1ccc(F)cc1[C@H](Cn1c(=O)n(C(C)(C)C(=O)NC(C)C)c(=O)c2c(C)c(-n3nccn3)sc21)OC[C@H](C)C#N = 0.3 to 1 nM

Note: attention shifts to another entry.
Kindly indicate its recorded IC50. Item: COc1ccc(F)cc1[C@H](Cn1c(=O)n(C(C)(C)C(=O)N2CCCC2)c(=O)c2c(C)c(-n3nccn3)sc21)OCC(O)C(F)(F)F (stereo partly drawn)
1 to 5 nM

====

tested on: Botrtyis cinerea (Bc); assay: Growth inhibition assay of fungal pathogens, Bc; format: cell-based; settings: 48 h, Botrtyis cinerea; growth inhibition vs 2% DMSO control at 48 hours; read-out: Concentration at 90% Inhibition Bc
Experimental Readout: IC90 (µg/mL)
Only the number, expressed in µg/mL, is required.

• COCCO[C@@H](Cn1c(=O)n([C@H](C)C(=O)N2CCCC2)c(=O)c2c(C)c(-n3nccn3)sc21)c1cc(F)ccc1OC = 2

Kindly indicate its recorded IC90. Item: COc1ccc(F)cc1[C@H](Cn1c(=O)n(C(C)(C)C(=O)N2CC=CC2)c(=O)c2c(C)c(-n3nccn3)sc21)OC(C)C
0.4

Kindly indicate its recorded IC90. Item: COc1ccc(F)cc1[C@H](Cn1c(=O)n(C(C)(C)C(=O)NCC(C)C)c(=O)c2c(C)c(-n3nccn3)sc21)OC1CCOCC1
0.4

Kindly indicate its recorded IC90. Item: COc1ccc(F)cc1[C@H](Cn1c(=O)n(C(C)(C)C(=O)N2CCCC2)c(=O)c2c(C)c(-n3nccn3)sc21)OC[C@H](C)O
2

Kindly indicate its recorded IC90. Item: COc1ccc(F)cc1[C@H](Cn1c(=O)n(CC(=O)N2CCCC2)c(=O)c2c(C)c(-n3nccn3)sc21)OCCO
0.08

Kindly indicate its recorded IC90. Item: COc1ccc(F)cc1[C@H](Cn1c(=O)n(C(C)(C)C(=O)NC2CCC2)c(=O)c2c(C)c(-n3nccn3)sc21)OC1CCOCC1
0.4

Kindly indicate its recorded IC90. Item: COc1ccc(F)cc1[C@H](Cn1c(=O)n(C(C)(C)C(N)=O)c(=O)c2c(C)c(-n3nccn3)sc21)OC(C)C
2

Kindly indicate its recorded IC90. Item: COc1ccc(F)cc1[C@H](Cn1c(=O)n(C(C)(C)C(N)=O)c(=O)c2c(C)c(-n3nccn3)sc21)OC1CCC(=O)CC1
0.4

Kindly indicate its recorded IC90. Item: C=CCN(C)C(=O)C(C)(C)n1c(=O)c2c(C)c(-n3nccn3)sc2n(C[C@H](OC2CCOCC2)c2cc(F)ccc2OC)c1=O
0.4
